Measured inhibition by item
Test: growth inhibition, single agents and combos, LFS_MB_2R, cell-based, cisplatin combos, synergistic combos for chromothripsis tumors (AID 1671457);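 note: cells exposed to compound for four days before readout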
Settings: LFS_MB_2R medulloblastoma cells, measured here: combination with cisplatin, at 0.5 µM, stronger effect = higher value
Your answer is read as %, so omit the unit and give the number.

Below are worked cases with known answers.
• C=C(C)C1CCC2(C(=O)O)CCC3(C)C(CCC4C5(C)CCC(O)C(C)(C)C5CCC43C)C12 (configuration not stated) = -5.32
• O=C1C(=Cc2cccnc2)C(=O)c2ccccc21 = -19.2
• C=C1C(=O)O[C@@H]2C=C(C)CCC=C(C)CC[C@@H]12 = -29.5
• O=c1[nH]c(=O)n(C2CC(O)C(CO)O2)cc1I (configuration not stated) = 4.62
• CN(C)C(=S)NN=C(c1ccccn1)c1ccccn1 = 70.1
• C=CC1=C(C)C2=CC3=NC(=C(CC(=O)O)C4=NC(=C(C)C4=C(O)O)C=c4[nH]c(c(C)c4CC)=CC1=N2)C(CCC(=O)O)C3C (configuration not stated) = -3.5

[ask] Identify measured inhibition associated with Cn1cc(-c2cnn3c(N)c(Br)c([C@H]4CCCNC4)nc23)cn1
[reply] -14.4

[ask] Read the entry Nc1ccccc1NC(=O)c1cnccn1 and write its reported inhibition.
[reply] -6.3

[ask] Identify inhibition associated with the compound O=c1ccn(C2CC(O)C(CO)O2)c(=O)[nH]1 (configuration not stated)
[reply] -18.3
